# system_name: human Somatostatin 4 Receptor (SSTR4) (Homo sapiens (Human))
# Sequence (P31391 whole entry): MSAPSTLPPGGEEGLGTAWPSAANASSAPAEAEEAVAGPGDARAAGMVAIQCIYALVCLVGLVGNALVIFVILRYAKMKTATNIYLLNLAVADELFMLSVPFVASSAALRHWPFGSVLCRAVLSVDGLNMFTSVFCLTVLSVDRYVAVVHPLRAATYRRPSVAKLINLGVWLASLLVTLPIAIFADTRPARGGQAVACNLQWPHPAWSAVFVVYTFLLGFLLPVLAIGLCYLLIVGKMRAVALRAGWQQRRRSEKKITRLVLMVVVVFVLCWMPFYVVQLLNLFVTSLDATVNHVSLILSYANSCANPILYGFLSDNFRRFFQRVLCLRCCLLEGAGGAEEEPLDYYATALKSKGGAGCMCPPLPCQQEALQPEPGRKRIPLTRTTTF
# protocol_details: cAMP assay with human somatostatin 4 receptor (hSSTR4 expressing H4 cells)
# assay_setup: read-out: SSTR4 agonism EC50
readout: EC50 (µM)

Guide cases for EC50, answers given:
>  <molecule>
Cc1cccn2c(C(C)(C)NC(=O)C3CNCCCO3)ncc12 (single isomer, unassigned) [Example 146]

>  <EC50 [µM]>
1

$$$$
>  <molecule>
Cc1cccn2c(C3(NC(=O)C4CNCCOC4)CCC3)ncc12 (single isomer, unassigned) [Example 131]

>  <EC50 [µM]>
0.019

$$$$
>  <molecule>
Cc1nc(C(C)(C)NC(=O)C2CNCCOC2)n2cccc(F)c12 (single isomer, unassigned) [Example 121]

>  <EC50 [µM]>
0.0111

$$$$

1 = Cc1cccn2c(C(C)(CC(C)C)NC(=O)[C@@H]3CNCCO3)ncc12 (single isomer, unassigned) [Example 113]
2 = Cc1cccn2c(C(C)(C)NC(=O)[C@@H]3CNCCO3)ccc12 [Example 109]
3 = Cc1cc2ccccc2c(C(C)(C)NC(=O)C2CCNCCO2)n1 (racemic) [Example 50]
4 = Cc1cc2ccccc2c(C(C)(C)NC(=O)C2CNCCCO2)n1 (racemic) [Example 47]
5 = Cn1nc(C(C)(C)NC(=O)C2CNCCOC2)c2cccc(Cl)c21 (single isomer, unassigned) [Example 81]
Order the 5 molecules from highest to lowest EC50. Please write the labels in the order that was asked for.
1, 5, 3, 4, 2
